test system: KB-3-1; experiment: Cell survival assay (SRB), KB-3-1; format: cell-based, human; details: Homo sapiens, KB 3-1, KB-3-1 cells (paclitaxel-sensitive parent); read-out: In vitro IC50 (nM) KB-3-1
MEASURED PROPERTY: log10(IC50) (log10 of the value in nM)
Answers are given as log10 of IC50 in nM.

*Q* Form field: reported log10(IC50) of CN[C@@H](C(=O)N[C@H](C(=O)N(C)[C@H](/C=C(\C)C(=O)O)C(C)C)C(C)(C)C)C(C)(C)c1ccc(C)c(C)c1
*A* 1.14

*Q* Fill blank: measured log10(IC50) of the compound CC[C@H](C)[C@H](NC(=O)[C@@H](NC)C(C)(C)c1ccccc1)C(=O)N(C)[C@H](/C=C(\C)C(=O)O)C(C)C.O=C(O)C(F)(F)F is ____.
*A* 1.20

*Q* log10(IC50) for CN[C@H](C(=O)N[C@H](C(=O)N(C)[C@H](/C=C(\C)C(N)=O)C(C)C)C(C)(C)C)C(C)(C)c1ccccc1 ?
*A* 1.81

*Q* Entry CCOC(=O)/C(C)=C/[C@H](C(C)C)N(C)C(=O)[C@@H](NC(=O)C(NC)C(C)(C)c1csc2ccccc12)C(C)(C)C (stereo partly drawn) has what log10(IC50)?
*A* 2.68

*Q* Field request: log10(IC50) | item: CC/C(=C\[C@H](CC(C)C)N(C)C(=O)[C@@H](NC(=O)[C@@H](NC)C(C)(C)c1ccccc1)C(C)(C)C)C(=O)O
*A* 1.85

*Q* Need log10(IC50), item CN[C@H](C(=O)N[C@H](C(=O)N(C)[C@H](/C=C(\C)C(=O)O)C(C)C)C(C)(C)C)C(C)(C)c1cccc(-c2ccccc2)c1
*A* 0.28
